- Test system: T1, canine parietal cell gastrin receptor (recombinant, expressed from clone GR-1 in COS-7 cells) (canine)
- T1 chain: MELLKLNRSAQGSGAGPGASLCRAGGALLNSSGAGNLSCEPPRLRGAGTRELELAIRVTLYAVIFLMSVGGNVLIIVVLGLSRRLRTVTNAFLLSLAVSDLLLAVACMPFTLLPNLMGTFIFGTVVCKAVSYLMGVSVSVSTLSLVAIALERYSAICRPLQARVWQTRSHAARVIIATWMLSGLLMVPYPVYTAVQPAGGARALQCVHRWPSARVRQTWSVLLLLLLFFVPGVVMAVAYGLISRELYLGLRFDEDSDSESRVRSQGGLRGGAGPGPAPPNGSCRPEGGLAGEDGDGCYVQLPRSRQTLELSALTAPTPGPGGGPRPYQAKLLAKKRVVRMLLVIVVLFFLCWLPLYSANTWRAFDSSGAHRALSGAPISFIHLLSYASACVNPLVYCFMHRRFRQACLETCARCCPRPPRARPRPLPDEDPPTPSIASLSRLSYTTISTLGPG
- Assay explanation: radioligand saturation binding, 2.5 to 1,000 pM 125I-CCK-8, GR-1 transfected COS-7 cells
Ends that are not written are not given here.
Quantity kind: pKd
API: returns pKd as number; meaning -log10 of concentration in mol/L.

Query: // Input: DYMGWMDF (ends and bridges not checked; also: 125I label, site not given here) [125I-CCK-8] . Output its pKd only.
Result: 10.10
